Origin of values: the supplement of paper PMC11865577

system: G-clamp-N3 (biotin conjugate); assay: pull-down binding Z-score (relative to library population); higher = stronger binding; conditions: RNA library: Library-1 (pre-miRNA loops + repeats)
READOUT_KIND: pull-down binding Z-score
Format: numeric value only, no unit, no commentary.

[[record]]
sequence_chain = "CGAGGUGGGCUAGGCUCGGGCCCGUGGCG [hsa-mir-3656]"
readout_kind = "pull-down binding Z-score"
numeric_readout = 2.89

[[record]]
sequence_chain = "AGUGUGCAGUCAUCCACACA [hsa-mir-4731]"
readout_kind = "pull-down binding Z-score"
numeric_readout = -0.603

[[record]]
sequence_chain = "CCUGAUGAAUCUGAGGCCAGG [hsa-mir-577]"
readout_kind = "pull-down binding Z-score"
numeric_readout = 1.14

[[record]]
sequence_chain = "UGCACCACUCUCCCUGUGAUGAGGUGAA [hsa-mir-4786]"
readout_kind = "pull-down binding Z-score"
numeric_readout = -0.896


Recorded result, CUGAACCCGUGGGUGAGGAGUGCAG [hsa-mir-4690] , pull-down binding Z-score: 0.824

Just so you know, measured pull-down binding Z-score for UAUUCGCUUUAUUGACUUCGAAUA [hsa-mir-369] came out at -0.422

For reference, reported pull-down binding Z-score for GAUUCUGAUUCAGGGACCAAGAUUC [hsa-mir-544a] stands at 0.649
